# measurementTarget: NR1-1a/NR2B receptors (Rattus norvegicus, UniProt P35439+Q00960)
# Sequence (Q00960 27-1482, other chains not shown): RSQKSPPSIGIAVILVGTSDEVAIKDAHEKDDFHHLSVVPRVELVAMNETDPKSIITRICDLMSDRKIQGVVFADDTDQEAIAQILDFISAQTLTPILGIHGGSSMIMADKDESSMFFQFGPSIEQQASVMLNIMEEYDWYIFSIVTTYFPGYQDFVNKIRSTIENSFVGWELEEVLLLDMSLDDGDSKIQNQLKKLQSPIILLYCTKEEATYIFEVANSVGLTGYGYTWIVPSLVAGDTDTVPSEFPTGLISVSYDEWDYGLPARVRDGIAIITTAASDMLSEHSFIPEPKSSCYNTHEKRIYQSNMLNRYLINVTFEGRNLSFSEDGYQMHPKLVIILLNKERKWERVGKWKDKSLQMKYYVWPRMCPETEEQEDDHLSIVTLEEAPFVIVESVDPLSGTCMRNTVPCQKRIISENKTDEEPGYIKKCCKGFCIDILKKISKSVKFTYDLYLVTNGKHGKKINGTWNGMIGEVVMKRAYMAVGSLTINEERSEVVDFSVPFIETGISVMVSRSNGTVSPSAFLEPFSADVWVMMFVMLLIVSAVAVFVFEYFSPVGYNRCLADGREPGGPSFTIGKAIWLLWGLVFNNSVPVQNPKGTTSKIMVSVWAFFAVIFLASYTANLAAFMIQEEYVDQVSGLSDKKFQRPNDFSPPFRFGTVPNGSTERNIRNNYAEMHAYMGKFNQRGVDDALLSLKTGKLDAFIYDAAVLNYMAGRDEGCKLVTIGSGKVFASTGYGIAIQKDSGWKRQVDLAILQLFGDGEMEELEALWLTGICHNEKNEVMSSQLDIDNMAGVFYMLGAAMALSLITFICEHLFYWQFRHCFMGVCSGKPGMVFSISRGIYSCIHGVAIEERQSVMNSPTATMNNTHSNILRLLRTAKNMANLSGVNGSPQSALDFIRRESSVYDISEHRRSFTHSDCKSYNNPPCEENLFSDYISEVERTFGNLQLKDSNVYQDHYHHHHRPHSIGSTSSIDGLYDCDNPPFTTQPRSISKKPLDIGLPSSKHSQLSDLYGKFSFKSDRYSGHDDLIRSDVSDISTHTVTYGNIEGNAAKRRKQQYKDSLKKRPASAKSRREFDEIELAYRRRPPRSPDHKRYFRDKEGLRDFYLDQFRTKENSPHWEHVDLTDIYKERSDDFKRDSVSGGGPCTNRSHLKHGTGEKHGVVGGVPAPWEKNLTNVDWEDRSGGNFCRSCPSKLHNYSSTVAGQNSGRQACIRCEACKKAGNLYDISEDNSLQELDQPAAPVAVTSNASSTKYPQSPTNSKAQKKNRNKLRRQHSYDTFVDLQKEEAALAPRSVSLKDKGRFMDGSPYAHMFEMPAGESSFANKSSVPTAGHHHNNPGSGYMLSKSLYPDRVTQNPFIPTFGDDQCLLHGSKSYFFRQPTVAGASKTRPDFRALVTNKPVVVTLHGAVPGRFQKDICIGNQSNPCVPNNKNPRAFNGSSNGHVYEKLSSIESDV
# assayMethodText: cell-based
measuredMetric: pIC50
Please treat pIC50 as minus the base-10 logarithm of the molar concentration.

Requested read-out: pIC50. Entry: C[C@@H](CN1CCC(Cc2ccccc2)CC1)[C@@H](O)c1ccc(O)cc1 [RO25,6981]
7.23

----------
# measurementTarget: 6 × His-ATD2B (amino-terminal domain of NR2B subunit), wild type (Rattus norvegicus, UniProt Q00960)
# assayMethodText: biochemical
# runParameters: Buffer-13 refolded protein, CD
measuredMetric: Kd (nM)
Lab book: enter the figure in nM, no units written.

Look up Kd for this molecule: C[C@@H](CN1CCC(Cc2ccccc2)CC1)[C@@H](O)c1ccc(O)cc1
4
